Protocol Conditions: in dichloromethane, 286.15 K
Reported Endpoint: solubility (mole fraction)
Give a plain numeric answer without units written out.

[Q] Determine its reported solubility (mole fraction): COC(=O)C(C)(C)N=NC(C)(C)C(=O)OC
[A] 0.592

###

Protocol Conditions: in tetrachloromethane, 278.45 K
Reported Endpoint: solubility (mole fraction)
Give a plain numeric answer without units written out.

[Q] Determine its reported solubility (mole fraction): COC(=O)C(C)(C)N=NC(C)(C)C(=O)OC
[A] 0.393

###

Protocol Conditions: in methanol, 293.15 K
Reported Endpoint: solubility (mole fraction)
Give a plain numeric answer without units written out.

[Q] Determine its reported solubility (mole fraction): COC(=O)C(C)(C)N=NC(C)(C)C(=O)OC
[A] 0.626

###

Protocol Conditions: in n-butanol, 278.35 K
Reported Endpoint: solubility (mole fraction)

[Q] Determine its reported solubility (mole fraction): COC(=O)C(C)(C)N=NC(C)(C)C(=O)OC
[A] 0.0801

###

Protocol Conditions: in n-butanol, 262.55 K
Reported Endpoint: solubility (mole fraction)

[Q] Determine its reported solubility (mole fraction): COC(=O)C(C)(C)N=NC(C)(C)C(=O)OC
[A] 0.0111

###

Protocol Conditions: in diethyl ether, 254.25 K
Reported Endpoint: solubility (mole fraction)
Give a plain numeric answer without units written out.

[Q] Determine its reported solubility (mole fraction): COC(=O)C(C)(C)N=NC(C)(C)C(=O)OC
[A] 0.0921

###

Protocol Conditions: in acetonitrile, 265.15 K
Reported Endpoint: solubility (mole fraction)

[Q] Determine its reported solubility (mole fraction): COC(=O)C(C)(C)N=NC(C)(C)C(=O)OC
[A] 0.137

###

Protocol Conditions: in ethyl acetate, 257.85 K
Reported Endpoint: solubility (mole fraction)
Give a plain numeric answer without units written out.

[Q] Determine its reported solubility (mole fraction): COC(=O)C(C)(C)N=NC(C)(C)C(=O)OC
[A] 0.134

###

Protocol Conditions: in n-butanol, 291.05 K
Reported Endpoint: solubility (mole fraction)
Give a plain numeric answer without units written out.

[Q] Determine its reported solubility (mole fraction): COC(=O)C(C)(C)N=NC(C)(C)C(=O)OC
[A] 0.486

###

Protocol Conditions: in acetonitrile, 283.25 K
Reported Endpoint: solubility (mole fraction)
Give a plain numeric answer without units written out.

[Q] Determine its reported solubility (mole fraction): COC(=O)C(C)(C)N=NC(C)(C)C(=O)OC
[A] 0.432

###

Protocol Conditions: in ethanol, 273.25 K
Reported Endpoint: solubility (mole fraction)
Give a plain numeric answer without units written out.

[Q] Determine its reported solubility (mole fraction): COC(=O)C(C)(C)N=NC(C)(C)C(=O)OC
[A] 0.0568

###

Protocol Conditions: in ethanol, 285.65 K
Reported Endpoint: solubility (mole fraction)
Give a plain numeric answer without units written out.

[Q] Determine its reported solubility (mole fraction): COC(=O)C(C)(C)N=NC(C)(C)C(=O)OC
[A] 0.238

###

Protocol Conditions: in acetonitrile, 285.55 K
Reported Endpoint: solubility (mole fraction)
Give a plain numeric answer without units written out.

[Q] Determine its reported solubility (mole fraction): COC(=O)C(C)(C)N=NC(C)(C)C(=O)OC
[A] 0.494

###

Protocol Conditions: in isopropanol, 256.25 K
Reported Endpoint: solubility (mole fraction)

[Q] Determine its reported solubility (mole fraction): COC(=O)C(C)(C)N=NC(C)(C)C(=O)OC
[A] 0.0081
